Please respond with reported growth inhibition for every item in the list.
Assay: NCI Yeast Anticancer Drug Screen. Data for the mec2-1 strain (AID 157)
Conditions: S. cerevisiae mec2-1 strain, at 5.0 µM (retest, dose inferred, filed as 0.5), hits give high values
Compounds without any hit were thinned out: in the full panel of roughly 79,000, 15% have a hit. The source made the active and inactive calls. Rule as the data show it: active = growth inhibition above about 70%; inactive = the rest.

Task item: Given the compound `CCN(CC)CCCNc1c2c(Cl)cc(Cl)cc2nc2nc(=O)[nH]c(C)c12` , what is its reported growth inhibition?
Reply: 8% (inactive)

Task item: Given the compound `CCCCCCCCCCOC(=O)c1ccccn1` , what is its reported growth inhibition?
Reply: -3% (inactive)

Task item: Given the compound CCCCCCCCCCCCCCCCCC(=O)OC(C)CCC1CCCO1 (stereo unspecified) , what is its reported growth inhibition?
Reply: 1% (inactive)

Task item: Given the compound CC(C)CCCC(C)C1CCC2C3CC=C4CC(OC(=O)Nc5ccc(S(=O)(=O)c6ccc(F)cc6)cc5)CCC4(C)C3CCC12C (stereo unspecified) , what is its reported growth inhibition?
Reply: 1% (inactive)

Task item: Given the compound CCCN(CCC)CC(O)c1ccc2ccc3ccc(Cl)cc3c2c1 (stereo unspecified) , what is its reported growth inhibition?
Reply: 18% (inactive)

Task item: Given the compound CCC(C(c1ccc(Cl)cc1)c1ccc(Cl)c(Cl)c1)[N+](=O)[O-] (stereo unspecified) , what is its reported growth inhibition?
Reply: 0% (inactive)

Task item: Given the compound `N#CSc1ccc(Nc2ccc(SC#N)cc2)cc1` , what is its reported growth inhibition?
Reply: 99% (active)

Task item: Given the compound COc1ccc(C(c2c(O)c3ccccc3oc2=O)N2CCOCC2)c(OC)c1 (stereo unspecified) , what is its reported growth inhibition?
Reply: -6% (inactive)

Task item: Given the compound `O=C(NC1CCN(Cc2ccccc2)CC1)c1ccc(I)cc1` , what is its reported growth inhibition?
Reply: 46% (inactive)

Task item: Given the compound `CCNc1ncnc2c1ncn2Cc1ccco1` , what is its reported growth inhibition?
Reply: -3% (inactive)

Task item: Given the compound `O=C(C(=O)n1ncc(Cl)c(Cl)c1=O)n1ncc(Cl)c(Cl)c1=O` , what is its reported growth inhibition?
Reply: -5% (inactive)

Task item: Given the compound CC1NS(=O)(=O)N(C)C1=O (stereo unspecified) , what is its reported growth inhibition?
Reply: 6% (inactive)

Task item: Given the compound `O=C(O)c1cc2oc(-c3ccccc3)cc2[nH]1` , what is its reported growth inhibition?
Reply: -8% (inactive)

Task item: Given the compound `Cc1cc(Cl)c2c(c1)C(=O)/C(=C/c1ccc(Cl)cc1)O2` , what is its reported growth inhibition?
Reply: 18% (inactive)

Task item: Given the compound `COc1cccc(/C=C/C(C)=O)c1OC` , what is its reported growth inhibition?
Reply: 4% (inactive)

Task item: Given the compound `CCOC1(OCC)Cc2nc3ccccc3cc21` , what is its reported growth inhibition?
Reply: -2% (inactive)

Task item: Given the compound `O=C(NCc1ccc(F)cc1)c1ccc(C(=O)NCc2ccc(F)cc2)cc1` , what is its reported growth inhibition?
Reply: -19% (inactive)

Task item: Given the compound C/C(=N/O)C1CC(CCC2([N+](=O)[O-])CCC(C)(O)C(/C(C)=N/O)C2)([N+](=O)[O-])CCC1(C)O (stereo unspecified) , what is its reported growth inhibition?
Reply: 3% (inactive)

Task item: Given the compound CCC(C)C(C(=O)NOC(=O)c1ccccc1)/C(N)=N/OC(=O)c1ccccc1 (stereo unspecified) , what is its reported growth inhibition?
Reply: 83% (active)

Task item: Given the compound `C[N+](C)([O-])CCC=C1c2ccccc2CCc2ccccc21` , what is its reported growth inhibition?
Reply: 12% (inactive)

Task item: Given the compound CCc1cccc(CC)c1NC(=O)C(C#N)C1=C(Cl)C(=O)c2ccccc2C1=O (stereo unspecified) , what is its reported growth inhibition?
Reply: 92% (active)

Task item: Given the compound CCC1([N+](=O)[O-])COC(c2ccc3c(c2)OCO3)OC1 (stereo unspecified) , what is its reported growth inhibition?
Reply: -14% (inactive)

Task item: Given the compound `BrC1CCCCCC1` , what is its reported growth inhibition?
Reply: 3% (inactive)

Task item: Given the compound `Cc1ccc([Si](O)(c2ccc(C)cc2)c2ccc(C)cc2)cc1` , what is its reported growth inhibition?
Reply: 78% (active)

Task item: Given the compound `CCCCCC(CCCCC)OC(=O)CCN(CCCCC)CCCCC` , what is its reported growth inhibition?
Reply: 6% (inactive)

Task item: Given the compound CC(O)c1cccnc1 (stereo unspecified) , what is its reported growth inhibition?
Reply: 10% (inactive)

Task item: Given the compound `CN(NS(=O)(=O)c1cccc([N+](=O)[O-])c1)c1ccccc1` , what is its reported growth inhibition?
Reply: 9% (inactive)

Task item: Given the compound COc1cc(C2c3cc4c(cc3[C@@H](Nc3cccc(O)c3)C3COC(=O)[C@H]23)OCO4)cc(OC)c1O (stereo partly specified) , what is its reported growth inhibition?
Reply: 96% (active)

Task item: Given the compound `O=c1[nH]c2ccc([N+](=O)[O-])c(Cl)c2c2ccccc12` , what is its reported growth inhibition?
Reply: 21% (inactive)

Task item: Given the compound `CC(C)(C)NCc1cc(Nc2ccnc3cc(Cl)ccc23)cc(-c2ccc(Cl)cc2)c1O` , what is its reported growth inhibition?
Reply: -4% (inactive)

Task item: Given the compound CN1CCN(C2=C(Cl)C3(OCCS3)C(F)(F)C2(F)F)CC1 (stereo unspecified) , what is its reported growth inhibition?
Reply: 26% (inactive)

Task item: Given the compound `Cc1cc(N2C(=O)CCSC2=S)ccc1Cl` , what is its reported growth inhibition?
Reply: 7% (inactive)

Task item: Given the compound `Oc1ccc(O)c2c1N=NC21c2ccccc2Oc2ccccc21` , what is its reported growth inhibition?
Reply: 7% (inactive)

Task item: Given the compound `CC(C)OP(=O)(OC(C)C)/C(I)=N/Nc1ccc([N+](=O)[O-])cc1` , what is its reported growth inhibition?
Reply: -6% (inactive)

Task item: Given the compound `Cc1ccc(N=Nc2ccc(N)c3ccccc23)c(S(N)(=O)=O)c1` , what is its reported growth inhibition?
Reply: 0% (inactive)

Task item: Given the compound `CCC[N+]1=C(/C=C/c2ccc3cccnc3c2O)C(C)(C)c2ccccc21` , what is its reported growth inhibition?
Reply: 0% (inactive)

Task item: Given the compound `O=S(=O)(ON=C1C=CC(=NOS(=O)(=O)c2ccccc2)C=C1)c1ccccc1` , what is its reported growth inhibition?
Reply: 6% (inactive)

Task item: Given the compound `CCOP(=O)(CCC(=O)[C@@]1(O)CC[C@H]2[C@@H]3CCC4=CC(=O)CC[C@]4(C)[C@H]3CC[C@@]21C)OCC` , what is its reported growth inhibition?
Reply: 1% (inactive)

Task item: Given the compound `C1=C(c2ccccc2)SC=C(c2ccccc2)S1` , what is its reported growth inhibition?
Reply: -14% (inactive)

Task item: Given the compound `Cc1nc(Nc2ccc(Cl)cc2)sc1C(=O)NNC(=O)C(=O)NN` , what is its reported growth inhibition?
Reply: -19% (inactive)

Task item: Given the compound `CN(C)CCCNc1c2ccccc2nc2ccc([N+](=O)[O-])cc12` , what is its reported growth inhibition?
Reply: 13% (inactive)

Task item: Given the compound `Cc1nc2c(nc1C)C(=O)C1=C(C2=O)C2C=CC1CC2` , what is its reported growth inhibition?
Reply: -2% (inactive)

Task item: Given the compound `c1cc(CCSSCCc2ccncc2)ccn1` , what is its reported growth inhibition?
Reply: 1% (inactive)

Task item: Given the compound O=S(Nc1ccccc1Br)c1ccccc1 (stereo unspecified) , what is its reported growth inhibition?
Reply: -2% (inactive)

Task item: Given the compound `O=C1CCSC(=S)N1c1ccc(Br)c(Cl)c1` , what is its reported growth inhibition?
Reply: 9% (inactive)

Task item: Given the compound COc1ccc(/C(=N/NC(N)=O)C(c2ccc(OC)cc2)C2C(=O)Oc3ccccc32)cc1 (stereo unspecified) , what is its reported growth inhibition?
Reply: -59% (inactive)

###

Assay: NCI Yeast Anticancer Drug Screen. Data for the mec2-1 strain (AID 157)
Conditions: S. cerevisiae mec2-1 strain, at 5.0 µM (retest, dose inferred, filed as 0.5), hits give high values
About 79,000 compounds went through this panel and 15% of them were active in at least one assay; those are over-represented in the sample as a whole.
metric_name: growth inhibition (%)
Please respond with the number in % and leave the unit unwritten.

Task item: Given the compound `Oc1cccc2ccncc12` , what is its reported growth inhibition?
Reply: -14

Task item: Given the compound `COc1ccc(N)c([N+](=O)[O-])c1` , what is its reported growth inhibition?
Reply: 1

Task item: Given the compound `[Cl][Pt+2][Cl].[NH-]c1cc2ccccc2cc1[NH-]` , what is its reported growth inhibition?
Reply: -34

Task item: Given the compound Clc1c(Cl)c(Cl)c(SC2C3CC4C(C3)C42)c(Cl)c1Cl (centres undefined) , what is its reported growth inhibition?
Reply: 23

Task item: Given the compound `C/C(=N\NS(=O)(=O)c1ccc(C)cc1)c1cc2ccccc2n1C` , what is its reported growth inhibition?
Reply: -24

Task item: Given the compound `COc1cc(NCCCCCNC2CCCCC2)c2ncccc2c1` , what is its reported growth inhibition?
Reply: -4

Task item: Given the compound `COC1=CC(=O)C(C#CCOCc2ccccc2)=CC1=O` , what is its reported growth inhibition?
Reply: 0

Task item: Given the compound `COC(=O)c1cc2c(oc1=O)-c1ccccc1N(C=O)C2` , what is its reported growth inhibition?
Reply: -9

Task item: Given the compound `O=S(=O)(N=S(c1ccc(Cl)cc1)c1ccc(Cl)cc1)c1ccccc1` , what is its reported growth inhibition?
Reply: -8

Task item: Given the compound `O=C1/C(=C/c2ccc([N+](=O)[O-])cc2)Sc2scc(-c3cccc([N+](=O)[O-])c3)[n+]21` , what is its reported growth inhibition?
Reply: 69

Task item: Given the compound `CN(C)c1ccccc1CCCCCCc1ccccc1N(C)C` , what is its reported growth inhibition?
Reply: 55

Task item: Given the compound CCC(c1ccc(Cl)cc1)C(C#N)c1ccc(Cl)cc1 (centres undefined) , what is its reported growth inhibition?
Reply: -1

Task item: Given the compound `C/C(O)=C(/C=N/C(=S)Nc1ccc(S(N)(=O)=O)cc1)C(=O)Nc1ccccc1C` , what is its reported growth inhibition?
Reply: -10

Task item: Given the compound `CCOc1ccccc1C(=O)OCc1ccccc1` , what is its reported growth inhibition?
Reply: -9

Task item: Given the compound `COC(=O)c1ccc(NCC2=C(Br)C(=O)C=CC2=O)cc1Cl` , what is its reported growth inhibition?
Reply: 35

Task item: Given the compound `O=C(O)CCC(=O)c1ccc2c(c1)CCCC2` , what is its reported growth inhibition?
Reply: -9

Task item: Given the compound `O=C(O)C(=O)Cc1ccccc1[N+](=O)[O-]` , what is its reported growth inhibition?
Reply: 1

Task item: Given the compound `CCOc1ccc(/C=N\NC(=O)c2ccco2)cc1OCC` , what is its reported growth inhibition?
Reply: -3

Task item: Given the compound CC1=NOC(=O)C1N=Nc1ccc(Br)cc1C (centres undefined) , what is its reported growth inhibition?
Reply: 100

Task item: Given the compound `O[C@H](CNCCS)[C@@H](O)CNCCS` , what is its reported growth inhibition?
Reply: 2

Task item: Given the compound CC(C(=O)O)C(N)C(=O)O (centres undefined) , what is its reported growth inhibition?
Reply: -1

Task item: Given the compound COC(C(=O)C1=C2Oc3c4c(cc(O)c3C(=O)C2C2=C(CCCC2)C1=O)OC(C)(C)C=C4)C(C)CCC=C(C)C (centres undefined) , what is its reported growth inhibition?
Reply: -1

Task item: Given the compound `C[C@H](CCC1=NCCN1)[C@H]1CC[C@H]2[C@@H]3[C@H](O)C[C@@H]4C[C@H](O)CC[C@]4(C)[C@H]3CC[C@]12C` , what is its reported growth inhibition?
Reply: -2

Task item: Given the compound `O=[N+]([O-])CCc1ccco1` , what is its reported growth inhibition?
Reply: 1
